Record type: pKd measurement. Applies to: Macrophage metalloelastase (Homo sapiens)
Give only the number. pKd is defined as minus log10 of concentration in molar units.

• O=C(CNS(=O)(=O)c1ccccc1)NO = 7.21

Lookup: Give the reported pKd for CC(=O)NO [ACETOHYDROXAMIC ACID] (system: Macrophage metalloelastase (Homo sapiens)).
Sequence (P39900 whole entry): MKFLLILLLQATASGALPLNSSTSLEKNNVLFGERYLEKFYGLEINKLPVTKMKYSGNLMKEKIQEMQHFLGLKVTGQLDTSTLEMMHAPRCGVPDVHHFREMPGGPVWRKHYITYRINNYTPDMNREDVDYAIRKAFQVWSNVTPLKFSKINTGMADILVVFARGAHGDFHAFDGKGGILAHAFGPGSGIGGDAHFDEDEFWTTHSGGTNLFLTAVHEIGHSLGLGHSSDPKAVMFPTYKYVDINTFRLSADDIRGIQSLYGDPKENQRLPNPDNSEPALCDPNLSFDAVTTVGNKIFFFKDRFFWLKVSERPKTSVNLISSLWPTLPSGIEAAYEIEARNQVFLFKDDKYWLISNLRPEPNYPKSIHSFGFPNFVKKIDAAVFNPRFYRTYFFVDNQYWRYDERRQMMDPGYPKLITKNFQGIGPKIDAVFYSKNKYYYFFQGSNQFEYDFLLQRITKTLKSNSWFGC
Found: 2.21
